Data credit: patent US20250129021A1

Tested on: MYC
assay summary: In vitro transcription-translation (IVTT) assay, MYC reporter
Format: biochemical
condition context: IVTT assay, HeLa S3 lysate, MYC reporter, normalized sfGFP/mCherry ratio; half-log dilutions 30 μM-0.1 μM, 2 hrs at 30° C.
Property: IC50; scope: individual molecules

smiles_structure=COc1ccc(C[C@H]2NC[C@H](O)[C@H]2OC(=O)NCC[C@H]2CCCNC2)cc1 measured_property=IC50 val="< 10 µM"
smiles_structure=O=C(NCc1ccccc1)O[C@@H]1[C@@H](O)CN[C@@H]1Cc1ccc(C2CC2)cc1 measured_property=IC50 val="< 10 µM"
smiles_structure=COc1ccc(C[C@H]2NC[C@H](O)[C@H]2OC(=O)NC[C@H]2CCN(c3ncccn3)C2)cc1 measured_property=IC50 val="10 to 20 µM"
smiles_structure=COc1ccc(C[C@H]2NC[C@H](O)[C@H]2OC(=O)NCCn2nc(C)cc2C)cc1 measured_property=IC50 val="> 30 µM"
smiles_structure=O=C(NCC[C@H]1C[C@H](O)C1)O[C@@H]1[C@@H](O)CN[C@@H]1Cc1ccc(-c2cncs2)cc1 measured_property=IC50 val="< 10 µM"
smiles_structure=O=C(NCCOC(F)(F)F)O[C@@H]1[C@@H](O)CN[C@@H]1Cc1ccc(-c2cnco2)cc1 measured_property=IC50 val="< 10 µM"
smiles_structure=COc1ccc(C[C@H]2NC[C@H](O)[C@H]2OC(=O)NCCN2CCCS2(=O)=O)cc1 measured_property=IC50 val="< 10 µM"
smiles_structure=O=C(NCCC1CCNCC1)O[C@@H]1[C@@H](O)CN[C@@H]1Cc1ccc(-c2ccccc2)cc1 measured_property=IC50 val="10 to 20 µM"

## Task # return IC50 for COc1ccc(C[C@H]2NC[C@H](O)[C@H]2OC(=O)NCc2ccc(=O)[nH]c2)cc1 , test system: MYC
## Result < 10 µM

## Task Answer briefly: IC50 recorded on MYC for CC(F)(F)c1ccc(C[C@H]2NC[C@H](O)[C@H]2OC(=O)NCc2cccc(F)c2)cc1
## Result < 10 µM

## Task Please tell me the measured IC50 for COc1ccc(C[C@H]2NC[C@H](O)[C@H]2OC(=O)NCC[C@@H]2CC(F)(F)CN2)cc1 ; system: MYC.
## Result 10 to 20 µM

## Task # return IC50 of COc1ccc(C[C@H]2NC[C@H](O)[C@H]2OC(=O)NCc2c(F)cccc2F)cc1 (system: MYC)
## Result 20 to 30 µM

## Task Specify IC50 for O=C(NCC[C@H]1C[C@@H](O)C1)O[C@@H]1[C@@H](O)CN[C@@H]1Cc1ccc(-c2cncs2)cc1 , system MYC.
## Result < 10 µM

* * *

System: CCND1
assay summary: In vitro transcription-translation (IVTT) assay, CCND1 reporter
Format: biochemical
condition context: HeLa S3 lysate, sfGFP/mCherry ratio, 2 hrs at 30° C.
Quick reference for IC50 among some molecules

## Task Identify IC50 associated with the molecule COc1ccc(C[C@H]2NC[C@H](O)[C@H]2OC(=O)NCCNC(=O)[C@@H]2CCCN2)cc1
## Result 10 to 20 µM

## Task Note IC50 for the molecule shown: COc1ccc(C[C@H]2NC[C@H](O)[C@H]2OC(=O)NCc2cocn2)cc1
## Result < 10 µM

## Task // fetch IC50 given entry COc1ccc(C[C@H]2NC[C@H](O)[C@H]2OC(=O)NCc2n[nH]nc2COCc2ccccc2)cc1
## Result > 30 µM

## Task Give the measured IC50 for COc1ccc(C[C@H]2NC[C@H](O)[C@H]2OC(=O)NCC2(F)CNC2)cc1
## Result > 30 µM

* * *

System: MYC
assay summary: In vitro transcription-translation (IVTT) assay, MYC reporter
Type: biochemical
condition context: IVTT assay, HeLa S3 lysate, MYC reporter, normalized sfGFP/mCherry ratio; half-log dilutions 30 μM-0.1 μM, 2 hrs at 30° C.
measured property: IC50

smiles_structure=COc1ccc(C[C@H]2NC[C@H](O)[C@H]2OC(=O)NC[C@@H]2[C@@H]3CNC[C@@H]32)cc1 val="> 30 µM"
smiles_structure=O=C(NCc1ccc2c(c1)CCNC2)O[C@@H]1[C@@H](O)CN[C@@H]1Cc1ccc(-c2ccc3c(c2)CC(F)(F)C3)cc1 val="< 10 µM"
smiles_structure=O=C(NCc1ccnc(N2CCC2)c1)O[C@@H]1[C@@H](O)CN[C@@H]1Cc1ccc(-c2ccc(C(F)(F)F)cc2)cc1 val="20 to 30 µM"
smiles_structure=O=C(NCc1ccc2c(c1)CCNC2)O[C@@H]1[C@@H](O)CN[C@@H]1Cc1ccc(-c2ccc(S(F)(F)(F)(F)F)cc2)cc1 val="> 30 µM"
smiles_structure=COc1ccc(C[C@H]2NC[C@H](O)[C@H]2OC(=O)NCc2ccc(CN)cc2)cc1 val="< 10 µM"

## Task Hello, please tell me recorded IC50 for this one: O=C(NCc1ccc2c(c1)CCNC2)O[C@@H]1[C@@H](O)CN[C@@H]1Cc1ccc(-c2cnco2)cc1
## Result < 10 µM

## Task Output measured IC50 for this item: O=C(NCC[C@@H]1CCNC1)O[C@@H]1[C@@H](O)CN[C@@H]1Cc1ccc(C(F)F)cc1
## Result < 10 µM

## Task Determine from records and report IC50 for O=C(NCC[C@@H]1CCCN1)O[C@@H]1[C@@H](O)CN[C@@H]1Cc1ccc(-c2ccc(S(F)(F)(F)(F)F)cc2)cc1
## Result > 30 µM

* * *

System: MYC
assay summary: In vitro transcription-translation (IVTT) assay, MYC reporter
Assay type: biochemical
condition context: IVTT assay, HeLa S3 lysate, MYC reporter, normalized sfGFP/mCherry ratio; half-log dilutions 30 μM-0.1 μM, 2 hrs at 30° C.
pIC50: −log10 of the molar value.
measured property: pIC50

## Task Please indicate pIC50 recorded for COc1ccc(C[C@H]2NC[C@H](O)[C@H]2OC(=O)NCc2ccc(C3CCCN3)cc2)cc1 (stereo partly shown) [V188355]
## Result > 5.00

## Task Check the records and state pIC50 for CNC(=O)O[C@@H]1[C@@H](O)CN[C@@H]1Cc1ccc(-c2cn(-c3cc4ccc(O)cc4oc3=O)nn2)cc1 [V193432]
## Result > 5.00

* * *

Tested on: NFKB1
assay summary: In vitro transcription-translation (IVTT) assay, NFKB1 reporter
Type: biochemical
condition context: HeLa S3 lysate, 2 hrs at 30° C.
pIC50: −log10 of the molar value.
measured property: pIC50

## Task Jot down pIC50 (NFKB1) of O=C(NCc1ccccc1)O[C@@H]1[C@@H](O)CN[C@@H]1Cc1ccc(-c2ccc3c(c2)CNC3)cc1 .
## Result > 5.00

* * *

Tested on: KRAS G12D
assay summary: In vitro transcription-translation (IVTT) assay, KRAS G12D reporter
Assay type: biochemical
condition context: HeLa S3 lysate, sfGFP/mCherry ratio, 2 hrs at 30° C.
Counter-ions that a name gives are not always drawn.
measured property: IC50

compound="COc1ccc(C[C@H]2NC[C@H](O)[C@H]2OC(=O)NCC[C@H]2CN(CC3CC3)CCN2Cc2ccccc2)cc1 [V187344]" target="KRAS G12D" val="> 30 µM"
compound="COc1ccc(C[C@H]2NC[C@H](O)[C@H]2OC(=O)NCCCN)cc1 [V187591]" target="KRAS G12D" val="< 10 µM"
compound="COc1ccc(C[C@H]2NC[C@H](O)[C@H]2OC(=O)NCCN2CCCC2)cc1 [V187565, trifluoroacetic acid]" target="KRAS G12D" val="> 30 µM"
compound="COc1ccc(C[C@H]2NC[C@H](O)[C@H]2OC(=O)NCCN2C[C@@H](O)[C@H](O)C2)cc1 [V187577]" target="KRAS G12D" val="10 to 20 µM"
compound="COCCN(CCNC(=O)O[C@@H]1[C@H](O)CN[C@H]1Cc1ccc(OC)cc1)CCOC [V187538, trifluoroacetic acid]" target="KRAS G12D" val="> 30 µM"

## Task Check the records and state IC50 for COC1CCC(CC2NCC(O)C2OC(O)NCCOCC2CNNN2)CC1 (stereo not drawn) [V187723, trifluoroacetic acid]
## Result > 30 µM

## Task Specify measured IC50 for CCN(CC)CCCNC(=O)O[C@@H]1[C@@H](O)CN[C@@H]1Cc1ccc(OC)cc1 [V187387, trifluoroacetic acid salt] .
## Result > 30 µM

## Task Consider the compound COc1ccc(C[C@H]2NC[C@H](O)[C@H]2OC(=O)NCCN2CC3(CNC3)C2)cc1 [V187623] and give its recorded IC50.
## Result > 30 µM

## Task Provide measured IC50 value, entry: COc1ccc(C[C@H]2NC[C@H](O)[C@H]2OC(=O)NCCN2CCC2)cc1 [V187566, trifluoroacetic acid]
## Result > 30 µM

## Task State its IC50: COc1ccc(C[C@H]2NC[C@H](O)[C@H]2OC(=O)Nc2cc(C)[nH]n2)cc1 [V187658, trifluoroacetic acid]
## Result > 30 µM

## Task Look up and state reported IC50 for COc1ccc(C[C@H]2NC[C@H](O)[C@H]2OC(=O)NCCNCCn2ccnc2)cc1 [V187637]
## Result 20 to 30 µM

## Task Identify the reported IC50 for the following entry. COc1ccc(C[C@H]2NC[C@H](O)[C@H]2OC(=O)NC[C@@H]2CCCN2)cc1 [V187684]
## Result > 30 µM

## Task Provide measured IC50 value, entry: COc1ccc(C[C@H]2NC[C@H](O)[C@H]2OC(=O)NCCc2cnc[nH]2)cc1 [V187593]
## Result < 10 µM

## Task Report IC50 for COc1ccc(C[C@H]2NC[C@H](O)[C@H]2OC(=O)N[C@@H]2CCNC2)cc1 [V187688]
## Result > 30 µM

## Task Name the recorded IC50 of the compound listed here: COc1ccc(C[C@H]2NC[C@H](O)[C@H]2OC(=O)NCCN2C[C@@H](O)[C@H](NC(C)=O)C2)cc1 [V187578]
## Result > 30 µM

## Task Please look at this compound and report its IC50: COc1ccc(C[C@H]2NC[C@H](O)[C@H]2OC(=O)NCCN2C[C@@H](NC(=O)C3CC(F)(F)C3)[C@H](NC(=O)C3CC(F)(F)C3)C2)cc1 [V187554]
## Result > 30 µM

## Task Kindly indicate its recorded IC50. Item: COc1ccc(C[C@H]2NC[C@H](O)[C@H]2OC(=O)NCC[C@H]2CNCCN2Cc2ccccc2)cc1 [V187568]
## Result > 30 µM

## Task Quickly give me recorded IC50 for COc1ccc(C[C@H]2NC[C@H](O)[C@H]2OC(=O)NC[C@H]2CCNC2)cc1 [V187686]
## Result 10 to 20 µM
